# experimental_system: hNav 1.7 (Homo sapiens (Human), UniProt Q15858)
# Sequence (Q15858 whole entry): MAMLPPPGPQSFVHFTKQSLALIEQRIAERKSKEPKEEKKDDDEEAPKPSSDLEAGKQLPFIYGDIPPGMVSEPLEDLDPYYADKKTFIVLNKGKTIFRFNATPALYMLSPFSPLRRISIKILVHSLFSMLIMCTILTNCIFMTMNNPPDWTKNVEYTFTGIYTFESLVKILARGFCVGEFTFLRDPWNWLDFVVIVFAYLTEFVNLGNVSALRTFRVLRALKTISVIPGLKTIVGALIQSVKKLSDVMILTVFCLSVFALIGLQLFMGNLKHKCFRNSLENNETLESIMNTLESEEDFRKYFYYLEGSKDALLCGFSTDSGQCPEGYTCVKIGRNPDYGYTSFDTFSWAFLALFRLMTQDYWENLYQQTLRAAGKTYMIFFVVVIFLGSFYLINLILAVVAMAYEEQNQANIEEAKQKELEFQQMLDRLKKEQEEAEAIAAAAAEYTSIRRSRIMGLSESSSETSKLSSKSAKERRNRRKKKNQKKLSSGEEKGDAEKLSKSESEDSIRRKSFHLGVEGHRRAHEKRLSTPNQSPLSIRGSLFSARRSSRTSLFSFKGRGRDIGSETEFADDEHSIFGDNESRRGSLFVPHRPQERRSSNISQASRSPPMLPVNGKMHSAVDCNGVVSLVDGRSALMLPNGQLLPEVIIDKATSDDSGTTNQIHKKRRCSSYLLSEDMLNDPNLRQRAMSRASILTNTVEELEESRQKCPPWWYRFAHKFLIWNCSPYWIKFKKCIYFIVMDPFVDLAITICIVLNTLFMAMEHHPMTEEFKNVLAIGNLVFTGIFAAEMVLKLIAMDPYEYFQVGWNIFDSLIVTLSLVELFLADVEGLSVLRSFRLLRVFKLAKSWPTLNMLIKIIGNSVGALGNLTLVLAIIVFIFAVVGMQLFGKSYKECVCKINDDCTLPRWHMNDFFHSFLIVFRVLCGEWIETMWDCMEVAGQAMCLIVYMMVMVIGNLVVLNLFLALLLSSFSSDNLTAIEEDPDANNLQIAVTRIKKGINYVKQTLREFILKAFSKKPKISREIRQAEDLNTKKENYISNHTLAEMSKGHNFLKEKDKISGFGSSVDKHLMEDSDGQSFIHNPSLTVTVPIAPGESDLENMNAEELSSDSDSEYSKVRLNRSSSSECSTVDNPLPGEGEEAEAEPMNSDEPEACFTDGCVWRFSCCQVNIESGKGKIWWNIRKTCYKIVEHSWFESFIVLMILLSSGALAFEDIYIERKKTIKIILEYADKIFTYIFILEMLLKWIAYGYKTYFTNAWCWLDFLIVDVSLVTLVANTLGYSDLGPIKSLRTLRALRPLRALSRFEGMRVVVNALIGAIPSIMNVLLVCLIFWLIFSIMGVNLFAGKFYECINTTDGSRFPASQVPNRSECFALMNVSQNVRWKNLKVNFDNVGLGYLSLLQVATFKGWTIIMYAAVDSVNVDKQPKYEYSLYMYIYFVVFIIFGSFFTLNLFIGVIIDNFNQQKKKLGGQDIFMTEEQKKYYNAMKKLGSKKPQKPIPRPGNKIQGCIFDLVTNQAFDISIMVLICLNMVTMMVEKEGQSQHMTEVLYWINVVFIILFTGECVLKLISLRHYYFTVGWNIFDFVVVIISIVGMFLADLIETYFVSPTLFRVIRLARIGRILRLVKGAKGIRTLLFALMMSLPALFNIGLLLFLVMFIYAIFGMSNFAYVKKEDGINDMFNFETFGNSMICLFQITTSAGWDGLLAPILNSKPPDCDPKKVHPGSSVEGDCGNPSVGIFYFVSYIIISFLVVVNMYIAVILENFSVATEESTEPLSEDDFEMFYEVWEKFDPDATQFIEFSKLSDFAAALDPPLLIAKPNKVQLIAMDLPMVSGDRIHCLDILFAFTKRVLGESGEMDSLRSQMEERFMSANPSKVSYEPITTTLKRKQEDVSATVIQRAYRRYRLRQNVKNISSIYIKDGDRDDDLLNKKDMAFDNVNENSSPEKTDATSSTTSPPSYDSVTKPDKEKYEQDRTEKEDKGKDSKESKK
# Sequence (Q07699 19-218 partner): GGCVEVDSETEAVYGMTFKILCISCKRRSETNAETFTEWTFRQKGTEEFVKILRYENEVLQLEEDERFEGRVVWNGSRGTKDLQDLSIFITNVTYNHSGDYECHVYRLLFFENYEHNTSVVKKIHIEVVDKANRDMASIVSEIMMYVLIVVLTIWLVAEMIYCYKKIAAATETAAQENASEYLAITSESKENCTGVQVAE
# Sequence (O60939 30-215 partner): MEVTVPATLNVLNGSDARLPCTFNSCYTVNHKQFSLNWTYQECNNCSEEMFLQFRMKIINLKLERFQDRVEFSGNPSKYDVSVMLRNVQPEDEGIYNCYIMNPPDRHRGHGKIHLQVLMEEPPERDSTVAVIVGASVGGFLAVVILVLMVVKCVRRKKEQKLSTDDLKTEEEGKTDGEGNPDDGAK
# assay_text: Electrophysiological evaluation, automated patch clamp IonWorks Quattro (Population Patch Clamp mode)
# applied_conditions: HEK293A cells stably expressing hNav 1.7/β1/β2; response to second depolarization pulse, pre-pulse potential set to V1/2; read-out: hNav1.7 IC50
measured_metric: pIC50
Worth noting: pIC50 values are minus log10 of concentrations stated in mol/L.

// worked examples, pIC50 included
### Prompt Which measured pIC50 value corresponds to Nc1n[nH]cc1[C@H]1CCCC[C@@H]1Oc1ccc(S(=O)(=O)Nc2ccncn2)c(F)c1Cl (relative stereo) [Example 91] ?
### Response 6.77

### Prompt Which measured pIC50 value corresponds to O=S(=O)(Nc1ncns1)c1cc(F)c(O[C@H]2CCCC[C@@H]2c2ccccc2)cc1F (single isomer, unassigned) [Example 1] ?
### Response 6.92

Next up:
### Prompt Which measured pIC50 value corresponds to Cn1nccc1[C@H]1CC(F)(F)C[C@@H]1Oc1cc(F)c(S(=O)(=O)Nc2ccncn2)cc1Cl (relative stereo) [Example 146] ?
### Response 7.62

###

# experimental_system: hNav 1.7 (Homo sapiens (Human))
# assay_text: Electrophysiological evaluation, automated patch clamp IonWorks Quattro (Population Patch Clamp mode)
# applied_conditions: HEK293A cells stably expressing hNav 1.7/β1/β2; response to second depolarization pulse, pre-pulse potential set to V1/2; read-out: hNav1.7 IC50
measured_metric: pIC50
Worth noting: pIC50 values are minus log10 of concentrations stated in mol/L.

// worked examples, pIC50 included
### Prompt pIC50 of Cn1nccc1[C@H]1CC(F)(F)CC[C@@H]1Oc1cc(F)c(S(=O)(=O)Nc2ccncn2)cc1F (relative stereo) [Example 88] on hNav 1.7 (Homo sapiens (Human))?
### Response 6.49

### Prompt pIC50 of Cc1cc(S(=O)(=O)Nc2ccncn2)c(F)cc1O[C@H]1CC(F)(F)CC[C@@H]1c1cn[nH]c1 (relative stereo) [Example 127] on hNav 1.7 (Homo sapiens (Human))?
### Response 6.92

### Prompt pIC50 of O=S(=O)(Nc1ccncn1)c1c(F)cc(O[C@H]2CCCC[C@@H]2c2cn[nH]c2)cc1F [Example 171] on hNav 1.7 (Homo sapiens (Human))?
### Response 7.37

Next up:
### Prompt pIC50 of Cn1nccc1[C@H]1CCC[C@@H]1Oc1cc(F)c(S(=O)(=O)Nc2cscn2)cc1Cl (relative stereo) [Example 11] on hNav 1.7 (Homo sapiens (Human))?
### Response 8.00
